Test: Toxicity, visual observations in mice
Conditions: 30 mg/kg; duration and visual observations
ENDPOINT LABEL: Toxicity at 30 mg/kg

{"SMILES CODE": "O=C(O)CCCn1cnc2c(O)c(Cl)cc(Cl)c2c1=O", "ENDPOINT LABEL": "Toxicity at 30 mg/kg", "ENDPOINT VALUE": "10 days, none"}
{"SMILES CODE": "Cc1nc(Cn2cnc3c(O)c(Cl)cc(Cl)c3c2=O)cs1", "ENDPOINT LABEL": "Toxicity at 30 mg/kg", "ENDPOINT VALUE": "10 days, none"}
{"SMILES CODE": "O=c1c2c(Cl)cc(Cl)c(O)c2ncn1Cc1ccccn1", "ENDPOINT LABEL": "Toxicity at 30 mg/kg", "ENDPOINT VALUE": "10 days, none"}
{"SMILES CODE": "Br.CN(C)Cc1nc2c(O)c(Cl)cc(Cl)c2c(=O)n1C", "ENDPOINT LABEL": "Toxicity at 30 mg/kg", "ENDPOINT VALUE": "10 days, 1/4 mild signs"}
{"SMILES CODE": "O=c1c(-c2ccc(Cl)cc2)cnc2c(O)c(I)ccn12", "ENDPOINT LABEL": "Toxicity at 30 mg/kg", "ENDPOINT VALUE": "10 days, mild toxic signs"}
{"SMILES CODE": "CCCn1cnc2c(O)c(I)ccc2c1=S", "ENDPOINT LABEL": "Toxicity at 30 mg/kg", "ENDPOINT VALUE": "10 days, none"}

The measured Toxicity at 30 mg/kg associated with CCCCc1cnc2c(O)cccn2c1=O reads 10 days, none

====

System: primary cortical neuronal cultured cells
Test: Test compound cytotoxicity, MTS assay, primary cortical neuronal cultures
Format: cell-based, mouse
Settings: 1 μM test compound
ENDPOINT LABEL: Cytotox (% viable) Neuronal cells at 1 μM (%)
# value in %; strip the unit string

The measured Cytotox (% viable) Neuronal cells at 1 μM associated with CN(c1ccc2cccc(O)c2n1)c1ccc2cccc(O)c2n1 reads 80

The measured Cytotox (% viable) Neuronal cells at 1 μM associated with CCN(CC)Cc1ccc2c(Cl)cc(Cl)c(O)c2n1.Cl reads 74

The measured Cytotox (% viable) Neuronal cells at 1 μM associated with Oc1cccc2cccnc12 reads 93

The measured Cytotox (% viable) Neuronal cells at 1 μM associated with Cc1cccc(-c2cc(Cl)c3cccnc3c2O)c1 reads 98

The measured Cytotox (% viable) Neuronal cells at 1 μM associated with O=C(O)CCCn1cnc2c(O)c(Cl)cc(Cl)c2c1=O reads 97.9

The measured Cytotox (% viable) Neuronal cells at 1 μM associated with Oc1c(Cl)cc(Cl)c2ccc(-c3ccccn3)nc12 reads 55

The measured Cytotox (% viable) Neuronal cells at 1 μM associated with Oc1ccc(/C=C/c2ccc3cccc(O)c3n2)cc1 reads 100

The measured Cytotox (% viable) Neuronal cells at 1 μM associated with COc1ccccc1-c1cc(-c2ccccc2OC)c2cccnc2c1O reads 100

====

Test system: Abeta in extract of post-mortem human AD brain tissue
Assay: BAS: human brain amyloid solubilization assay
Type: biochemical
Conditions: max effect across the concentration range, referenced to baseline PBS
Assign yes (1) whenever BAS max effect does not fall below 200%; assign no (0) whenever it does.

Incoming: Test whether the compound Oc1c(-c2ccccc2C(F)(F)F)cc(Cl)c2cccnc12 [PB 864] records BAS max effect of 200% or higher.
Outgoing: yes (1)

Incoming: Test whether the compound COC(=O)c1nc(O)c2cccnc2c1O [PB 1046] records BAS max effect of 200% or higher.
Outgoing: yes (1)

Incoming: Test whether the compound COC(=O)c1nc(Cl)c2cccnc2c1O [PB 1045] records BAS max effect of 200% or higher.
Outgoing: no (0)

====

Biological target: Abeta:Zn (25:50 μM) Synthetic Aggregations (Homo sapiens)
Construct: PB Compound Mediated Dissolution of Aggregated Abeta 1-42
Sequence (P05067 672-713 limits assumed): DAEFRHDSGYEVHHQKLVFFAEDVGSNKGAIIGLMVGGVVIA
Experiment: Disaggregation of Abeta:Zn synthetic aggregates (ThT fluorescence)
Conditions: Abeta:Zn 25:50 μM aggregates
ENDPOINT LABEL: EC50

{"COMPOUND": "CCn1cnc2c(O)c(I)cc(Cl)c2c1=O", "ASSAYED TARGET": "Abeta:Zn (25:50 μM) Synthetic Aggregations (Homo sapiens)", "EC50": "4.7 µM"}
{"COMPOUND": "CCCc1cnc2c(O)cccn2c1=O", "ASSAYED TARGET": "Abeta:Zn (25:50 μM) Synthetic Aggregations (Homo sapiens)", "EC50": "5 µM"}
{"COMPOUND": "O=C(NCCc1c[nH]cn1)c1ccc2c(Cl)cc(Cl)c(O)c2n1", "ASSAYED TARGET": "Abeta:Zn (25:50 μM) Synthetic Aggregations (Homo sapiens)", "EC50": "4.85 µM"}

For CCN(CC)CCn1cnc2c(O)c(I)ccc2c1=O on Abeta:Zn (25:50 μM) Synthetic Aggregations (Homo sapiens), measured EC50 was 11 µM

For Cc1ccc(-n2cnc3c(O)c(Cl)cc(Cl)c3c2=O)nc1 on Abeta:Zn (25:50 μM) Synthetic Aggregations (Homo sapiens), measured EC50 was > 20 µM

For O=c1c2c(Cl)cc(Cl)c(O)c2ncn1Cc1ccccn1 on Abeta:Zn (25:50 μM) Synthetic Aggregations (Homo sapiens), measured EC50 was > 20 µM

====

Target: Abeta:Zn (25:50 μM) Synthetic Aggregations (Homo sapiens)
Construct: PB Compound Mediated Dissolution of Aggregated Abeta 1-42; purchased Keck Laboratory, Yale University School of Medicine
Test: Disaggregation of Abeta:Zn synthetic aggregates (ThT fluorescence)
Assay type: biochemical
Conditions: 5 μM test compound
Description: PB Compound Mediated Dissolution of Aggregated Abeta 1-42 Abeta1-42, is available from the Keck Laboratory, Yale University School of Medicine. PBS (pH 6.6): Sigma Cat# D-8662. Zn(ZnCl2): BDH Cat#100884E. […] By way of example of an amyloid composition, Abeta is dissolved in distilled water and peptide concentration is assessed by measured absorption at 214 nm in UV spectrometer. […] Samples are measured for ThT fluorescence using an LS55 (Perkin Elmer) fluorimeter in a cuvette (500 μl volume). […]
ENDPOINT LABEL: Disaggregation % Aggregate reduction at 5 μM (%)
# value in %; strip the unit string

Use these answered entries as a reference point.
{"COMPOUND": "CCCn1cnc2c(O)c(I)ccc2c1=O", "ENDPOINT VALUE": 51.5}
{"COMPOUND": "CCOC(=O)c1cnc2c(O)c(CC)ncc2c1", "ENDPOINT VALUE": 16.8}
{"COMPOUND": "CCCCc1cnc2c(O)cccn2c1=O", "ENDPOINT VALUE": 15.5}
{"COMPOUND": "O=c1c2ccc(I)c(O)c2ncn1-c1ccc(F)cc1", "ENDPOINT VALUE": 52}
{"COMPOUND": "O=c1c2ccc(I)c(O)c2ncn1-c1ccc(F)cc1F", "ENDPOINT VALUE": 45}
{"COMPOUND": "CCN(CC)CCn1cnc2c(O)c(I)ccc2c1=O", "ENDPOINT VALUE": 43.3}
{"COMPOUND": "O=c1c2c(Cl)ccc(O)c2ncn1CC1CC1", "ENDPOINT VALUE": 16}
{"COMPOUND": "O=c1c2ccc(I)c(O)c2ncn1Cc1cccc(Cn2cnc3c(O)c(I)ccc3c2=O)n1", "ENDPOINT VALUE": 59}

The measured Disaggregation % Aggregate reduction at 5 μM associated with O=c1c2c(Cl)cc(Cl)c(O)c2ncn1Nc1ccc(F)cc1F reads 42

The measured Disaggregation % Aggregate reduction at 5 μM associated with Br.CC(C)n1cnc2c(O)c(Cl)cc(Cl)c2c1=O reads 46.5

The measured Disaggregation % Aggregate reduction at 5 μM associated with O=c1c2cccc(O)c2ncn1-c1ccc(F)cc1 reads 22

The measured Disaggregation % Aggregate reduction at 5 μM associated with COc1ccc(-n2cnc3c(O)c(Cl)cc(Cl)c3c2=O)cn1 reads 16

====

Test system: M17 human neuroblastoma cells
Experiment: Cytotoxicity, M17 human neuroblastoma cells
Format: cell-based
Conditions: 10 μM test compound
Procedure: Assay 3. MTS Assay for Cell Viability Cell viability is determined using the MTS assay. Culture medium is replaced with fresh neurobasal medium plus B27 supplements minus antioxidants. 1/10th volume MTS solution (Cell Titre 96 Aqueous One, Promega Corporation) and incubated at 37° C., 2 hrs. 200 microliter aliquots are measured with a spectrophotometer at 560 nm.
ENDPOINT LABEL: Cytotox (% viable) M17 cells at 10 μM (%)
# value in %; strip the unit string

{"SMILES CODE": "Cc1nc(Cn2cnc3c(O)c(Cl)cc(Cl)c3c2=O)cs1", "Cytotox (% viable) M17 cells at 10 μM, %": 95.7}

Field: next compound
The measured Cytotox (% viable) M17 cells at 10 μM associated with O=c1c2c(Cl)cc(I)c(O)c2ncn1CC1CC1 reads 98.2
